Molecular target: Alpha-glucosidase (Saccharomyces cerevisiae S288c) (UniProt P53341+P38158+P07265)
Assay: Inhibition of alpha-glucosidase using 4-Nitrophenyl-[…]-D-glucopyranoside (pNPG) as substrate assessed as inhibition rate at 30 uM relative control
Type: protein assay
Recorded Metric: inhibition
Value and unit, in that order.

Provide each entry's inhibition from the list below.
1. COc1ccc(-n2cc(CNC(=O)[C@]34CCC(C)(C)C[C@H]3C3=CC[C@@H]5[C@@]6(C)CC[C@H](O)C(C)(C)[C@@H]6CC[C@@]5(C)[C@]3(C)C[C@H]4O)nn2)cc1
2. CC1(C)CC[C@]2(C(=O)OCc3nnc(-c4ccccc4)o3)[C@H](O)C[C@]3(C)C(=CC[C@@H]4[C@@]5(C)CC[C@H](O)C(C)(C)[C@@H]5CC[C@]43C)[C@@H]2C1
3. CC1(C)CC[C@]2(C(=O)OCc3nc(-c4ccc(Cn5cncn5)cc4)no3)[C@H](O)C[C@]3(C)C(=CC[C@@H]4[C@@]5(C)CC[C@H](O)C(C)(C)[C@@H]5CC[C@]43C)[C@@H]2C1

## Result
1. 48.5%
2. 57.2%
3. 10.5%
